target-system: Fibroblast growth factor 10 (Homo sapiens)
assay-summary: compounds binding fibroblast growth factor 10 – biochemical, small-molecule microarray, 635 nm fluorescence, primary screen (AID 1102)
measurement-conditions: FGF10 binding, fluorescence 635 nm, higher = more signal
Some compounds, each annotated with its measured composite z-score.
// no unit string in output, number only

Take a look at these entries with their results.
>>> reading("Cc1ccc(S[C@]2(C(=O)O)CC(=O)N(C(C)C)[C@@H]2c2ccc(CO)cc2)cc1")
0.224
>>> reading("C=CC[C@]12N=C(c3ccc(OCCCO)cc3)O[C@H]1c1ccccc1N(CCS(=O)(=O)c1ccccc1)C2=O")
0.374
>>> reading("C[N+](C)(C)CCCC[C@@H]1NC(=O)[C@H]2C[C@@H](C(=O)NCCCCCCNC(=O)CS)[C@@H](c3ccc(O)cc3)N2C1=O")
-0.347

Consider the additional compound presented here.
Returns the measured composite z-score for the input compound. Input: O=C1C2C=CC(C(O)c3cc(C(F)(F)F)cc(C(F)(F)F)c3)N(Nc3ccccc3)C2C(=O)N1c1ccccc1 (stereo not drawn)
-0.239
